Hey, just so you know, these numbers are from the Deep4Chem optical property database.

- test-name: photoluminescence quantum yield (fraction); solvent given as SMILES
- applied-conditions: in ClCCl
Kindly apply the following: criterion met if photoluminescence quantum yield is less than 0.4, criterion not met in every other case.

Q: In plain terms, does c1ccc2c(-c3c4ccccc4c(-c4ccc(-n5c6ccccc6c6ccccc65)cc4)c4ccccc34)cccc2c1 come in under 0.4 for photoluminescence quantum yield?
Result: criterion not met

Q: Find out if reported photoluminescence quantum yield for CCN(CC)c1ccc2cc(-c3nc4cc(C(=O)Nc5ccccc5[N+](=O)[O-])ccc4o3)c(=O)oc2c1 is less than 0.4
Result: criterion met

Q: Quick check: photoluminescence quantum yield of C(=C\c1ccncn1)/c1ccc(N2CCCCC2)cc1 under 0.4?
Result: criterion met

Q: Item C=CC1CN2CCC1CC2[C@@H](OCc1ccccc1)c1ccnc2ccc(O)cc12 (stereo not given in full) : photoluminescence quantum yield beneath 0.4, strictly?
Result: criterion met

Q: Say whether its photoluminescence quantum yield is strictly beneath 0.4. Entry: CN(C)c1ccc(C#Cc2cc3ccccc3oc2=O)cc1
Result: criterion met

###

- test-name: photoluminescence quantum yield (fraction); solvent given as SMILES
- applied-conditions: in CCCCCC
assay-metric: photoluminescence quantum yield

Q: Specify reported photoluminescence quantum yield for the molecule shown: COc1ccccc1C1=C2C(C)=CC(C)=[N+]2[B-](F)(F)n2c(C)cc(C)c21
Result: 0.98

Q: Retrieve photoluminescence quantum yield measured for F[B-]1(F)n2c(ccc2-c2ccccc2)C(C(F)(F)F)=C2C=CC(c3ccccc3)=[N+]21 and print it.
Result: 0.74

Q: Give the reported photoluminescence quantum yield for this molecule. CC1=CC(C)=[N+]2C1=Cc1c(C)cc(C)n1[B-]2(F)F
Result: 0.96

Q: Input CCC1=C(C)C2=Cc3c4ccccc4c4n3[B-](c3ccccc3)(Oc3ccccc3-4)[N+]2=C1C (stereo not given) , output reported photoluminescence quantum yield.
Result: 0.77

Q: Quick one: give measured photoluminescence quantum yield for Cc1cccc(C)c1Nc1ccc(/C=C/c2ccc3ccccc3c2)cc1
Result: 0.2

###

- test-name: photoluminescence quantum yield (fraction); solvent given as SMILES
- applied-conditions: in C1COCCO1
assay-metric: photoluminescence quantum yield
// print number alone

Q: Return photoluminescence quantum yield (reported value) for this compound: O=P1(c2ccccc2)C(c2cc(C(F)(F)F)cc(C(F)(F)F)c2)=Cc2c3ccc4cccc5ccc(c6cc(-c7ccccc7)n1c26)c3c45 (stereo not given)
Result: 0.62

Q: Tell us which photoluminescence quantum yield value is on record for CC(=O)c1c2c(cc3cc(N(C)C)ccc13)CCC2
Result: 0.38

Q: Give the reported value of photoluminescence quantum yield for this record: COc1ccc(C2=C/C(=C\c3ccc(C#N)cc3)C(=O)O2)cc1OC
Result: 0.45

Q: Output measured photoluminescence quantum yield for this item: COc1ccc(C2=N/C(=C\c3ccc(C#N)cc3)C(=O)O2)cc1OC
Result: 0.421

Q: Please report the measured photoluminescence quantum yield for CCOC(=O)c1ccc(NC(=O)COc2cc3c4c([nH]c3c(C)c2C)C(=O)CCC4)cc1
Result: 0.031

Q: Read off the recorded photoluminescence quantum yield for CN(C)c1ccc(/C=C/c2ccc(-c3cc(-c4ccccn4)nc(-c4ccccn4)c3)cc2)cc1
Result: 0.48

Q: Identify measured photoluminescence quantum yield corresponding to CN1C(=O)/C(=C/c2ccncc2)N=C1/C=C/c1ccccc1
Result: 0.029

Q: Look up and report measured photoluminescence quantum yield for this entry: c1ccc(-c2nc(-c3ccc(-c4nc(-c5ccccc5)c(-c5ccccc5)o4)cc3)oc2-c2ccccc2)cc1
Result: 0.63

Q: Supply photoluminescence quantum yield value. Item: c1ccc(-c2ccccc2)cc1
Result: 0.18

Q: Provide only the value of recorded photoluminescence quantum yield for CN(C)c1ccc(/C=C/c2nc3ccc(Br)cc3nc2-c2ccccc2)cc1
Result: 0.19
